# System: MAP kinase
# ASSAY OVERVIEW: "In Vivo" activity (whole cell MAP kinase assay)
# Assay type: cell-based
# RUN CONDITIONS: Table 2
# Description: To determine if compounds were able to block activation of MAP kinase in whole cells, the following protocol was used: Cells were plated in multi-well plates and grown to confluence. Cells were then serum-deprived overnight. […] Phosphorylated Map2 was resolved on 7.5% acrylamide gels and incorporated radioactivity determined by autoradiography and subsequent excision of the bands followed by scintillation counting. […]
REPORTED PROPERTY: IC50 (nM)

Completed entries (count: 5):
• Cc1ccccc1Nc1cc(F)ccc1C(=O)NO [Example 9a] = 1000
• Cc1cc(I)ccc1Nc1c(C(=O)NOCC#Cc2cccc(F)c2)ccc(F)c1F [Example 34a] = 1500
• C#CCCONC(=O)c1ccc(F)c(F)c1Nc1ccc(I)cc1C [Example 29a] = 730
• Cc1cc(Cl)ccc1Nc1cc(F)ccc1C(=O)NO [Example 11a] = 500
• Cc1cc(I)ccc1Nc1c(C(=O)NOCC2CC2)cc(Br)c(F)c1F [Example 58a] = 14

[A] CCCONC(=O)c1ccc(F)c(F)c1Nc1ccc(I)cc1C [Example 43a]
[B] Cc1cc(F)ccc1Nc1cc(F)ccc1C(=O)NO [Example 8a]
Query: Lower value of IC50 belongs to which: A or B ? Give the label under which the chosen entry appears.
Reply: A

###

# Tested on: MAP kinase
# ASSAY OVERVIEW: "In Vivo" activity (whole cell MAP kinase assay)
# Format: cell-based
# RUN CONDITIONS: Table 2
REPORTED PROPERTY: IC50 (nM)

[I] CCONC(=O)c1ccc(F)c(F)c1Nc1ccc(I)cc1C [Example 40a]
[II] C#CCONC(=O)c1ccc(F)c(F)c1Nc1ccc(I)cc1C [Example 71a]
[III] Cc1cc(I)ccc1Nc1ccc(Cl)cc1C(=O)NO
Query: Ascending sort, IC50. Write the labels out in the order the request specifies.
Reply: I, II, III
(I: 125 nM, II: 390 nM, III: 1000 nM)

###

# STUDY SYSTEM: MEK (Homo sapiens)
# ASSAY OVERVIEW: In vitro MEK inhibition (cascade assay for inhibitors of the MAP kinase pathway / in vitro MEK assay)
# Assay type: biochemical
# RUN CONDITIONS: Table 2
# Protocol: Incorporation of ^32 P into myelin basic protein (MBP) was assayed in the presence of a glutathione S-transferase fusion protein containing p44MAP kinase (GST-MAPK) and a glutathione S-transferase fusion protein containing p45MEK (GST-MEK). The assay solution contained 20 mM HEPES, pH 7.4, 10 MM MgCl2, 1 mM MnCl2, 1 mM EGTA, 50 μM [γ-^32 P]ATP, 10 μg GST-MEK, 0.5 μg GST-MAPK and 40 μg MBP in a final volume of 100 μL. […] Compounds were assessed at 10 μM for ability to inhibit incorporation of ^32 P. […]
REPORTED PROPERTY: IC50 (nM)

* Cc1cc(I)ccc1Nc1cc(F)ccc1C(=O)NOCc1ccccc1 [Example 77a] | 280

[a] Cc1cc(Cl)ccc1Nc1cc(F)ccc1C(=O)NO [Example 11a]
[b] Cc1cc(I)ccc1Nc1c(C(=O)NOCC2CC2)cc(Br)c(F)c1F [Example 58a]
[c] Cc1cc(Br)ccc1Nc1cc(F)ccc1C(=O)NO [Example 3a]
Query: Would you mind ranking these compounds by ascending IC50? Write the labels out in the order the request specifies.
Reply: b, c, a
(b: 18 nM, c: 72 nM, a: 334 nM)

###

# STUDY SYSTEM: MEK (Homo sapiens, UniProt Q02750)
# Sequence (Q02750 whole entry): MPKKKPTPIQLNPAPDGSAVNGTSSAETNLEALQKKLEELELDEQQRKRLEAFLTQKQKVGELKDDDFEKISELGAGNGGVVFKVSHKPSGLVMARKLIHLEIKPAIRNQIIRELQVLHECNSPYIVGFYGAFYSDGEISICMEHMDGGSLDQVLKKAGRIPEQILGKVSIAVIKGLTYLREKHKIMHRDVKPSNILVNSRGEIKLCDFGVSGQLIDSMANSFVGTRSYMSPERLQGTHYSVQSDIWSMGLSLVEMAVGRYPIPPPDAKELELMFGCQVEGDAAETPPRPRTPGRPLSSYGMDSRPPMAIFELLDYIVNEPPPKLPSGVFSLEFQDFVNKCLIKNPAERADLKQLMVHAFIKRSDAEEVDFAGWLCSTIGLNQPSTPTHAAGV
# ASSAY OVERVIEW: In vitro MEK inhibition (cascade assay for inhibitors of the MAP kinase pathway / in vitro MEK assay)
# Type: biochemical
# RUN CONDITIONS: Table 1
pIC50: −log10 of the molar value.
REPORTED PROPERTY: pIC50

- Cc1cc(I)ccc1Nc1ccc([N+](=O)[O-])cc1C(=O)NCCO [Example 195]: 4.89

[a] Cc1cc(I)ccc1Nc1cc([N+](=O)[O-])ccc1C(=O)O [Example 30]
[b] Cc1cc(I)ccc1Nc1ccc(F)cc1C(=O)NOCc1ccccc1 [Example 186]
Query: Lower value of pIC50 belongs to which: a or b ? Give the label under which the chosen entry appears.
Reply: a

###

pIC50 values for the compounds below.
# Test system: MAP kinase
# ASSAY OVERVIEW: "In Vivo" activity (whole cell MAP kinase assay)
# Assay type: cell-based
# RUN CONDITIONS: Table 2
pIC50: −log10 of the molar value.

Completed entries (count: 2):
• Cc1cc(I)ccc1Nc1ccc(Cl)cc1C(=O)N(C)O = ~4.52
• CONC(=O)c1ccc(F)c(F)c1Nc1ccc(I)cc1C [Example 14a] = < 5.70

// next entry
Query: Need pIC50, item Cc1cc(I)ccc1Nc1ccc(Cl)cc1C(=O)NOC1CCCCO1 (stereo not drawn)
Reply: ~4.52
